assay: in vivo; conditions: male, Sprague Dawley, rat, sc, 16 umol/kg
Examples of compounds with documented half-life follow.
MEASURED PARAMETER: half-life (min)

COMPOUND: C=CCN1CC[C@]23c4c5ccc(O)c4O[C@H]2[C@@H](OCc2cn(CCNCCCCCCOc4cc(OCCCc6c(C)n[nH]c6C)cc(C(=O)O)c4)nn2)CC[C@@]3(O)[C@H]1C5
MEASURED RESULT: 217
//
COMPOUND: COc1ccc2c3c1O[C@H]1C(=O)CC[C@@]4(O)[C@@H](C2)N(C)CC[C@]314 [Oxycodone, reference compound]
MEASURED RESULT: 46.8
//
COMPOUND: C=CCN1CC[C@]23c4c5ccc(O)c4O[C@H]2C(=O)CC[C@@]3(O)[C@H]1C5 [Naloxone, reference compound]
MEASURED RESULT: 40.2
//
COMPOUND: C=CCN1CC[C@]23c4c5ccc(O)c4O[C@H]2[C@@H](OCCOCCOCCOCCOCCOCCOCCOC)CC[C@@]3(O)[C@H]1C5 [Naloxegol, reference compound]
MEASURED RESULT: 52.8
//
COMPOUND: COc1ccc2c3c1O[C@H]1[C@@H](OCc4cn(CCNCCCCCCOc5cc(OCCCc6c(C)n[nH]c6C)cc(C(=O)O)c5)nn4)CC[C@@]4(O)[C@@H](C2)N(C)CC[C@]314
MEASURED RESULT: 281
